Sourced from ChEMBL document CHEMBL3632622

Experiment: Antiproliferative activity against human HT1080 cells assessed as growth inhibition incubated for 48 hrs by sulforhodamine B assay
Format: functional, cell-based, HT-1080
Settings: Homo sapiens, HT-1080, 48 h; read-out: IC50
Measured Parameter: IC50 (nM)
Report the figure in nM without appending any unit label.

A selection of reference data follows.
{"Given Smiles": "Cc1ccccc1OS(=O)(=O)c1ccc(NC(=O)NCCCl)cc1", "Measured Parameter": "IC50", "Scale Unit": "nM", "Endpoint Value": 1600}
{"Given Smiles": "O=C(NCCCl)Nc1ccc(S(=O)(=O)Oc2ccc(I)cc2)cc1", "Measured Parameter": "IC50", "Scale Unit": "nM", "Endpoint Value": 8700}
{"Given Smiles": "O=C(NCCCl)Nc1ccc(S(=O)(=O)Oc2ccccc2Cl)cc1", "Measured Parameter": "IC50", "Scale Unit": "nM", "Endpoint Value": 1100}
{"Given Smiles": "CCc1ccc(OS(=O)(=O)c2ccc(NC(=O)NCCCl)cc2)cc1", "Measured Parameter": "IC50", "Scale Unit": "nM", "Endpoint Value": 9800}

Task: // query IC50 value for entry O=C(NCCCl)Nc1ccc(S(=O)(=O)Oc2ccccc2I)cc1
Result: 1200

Task: Endpoint output: IC50 of CCOc1ccc(OS(=O)(=O)c2ccc(NC(=O)NCCCl)cc2)cc1 . Value?
Result: 8300

Task: Need IC50 of Cc1cc(C)c(OS(=O)(=O)c2ccc(NC(=O)NCCCl)cc2)cc1C , thanks.
Result: 1000

Task: Suppose we examine the molecule O=C(NCCCl)Nc1ccc(S(=O)(=O)Oc2cccc(Cl)c2)cc1 ; what IC50 value has been reported?
Result: 2600

Task: # get_value(readout='IC50', item= COc1cc(OS(=O)(=O)c2ccc(NC(=O)NCCCl)cc2)cc(OC)c1OC )
Result: 640

Task: I am curious: what IC50 value has been reported for CCc1cccc(OS(=O)(=O)c2ccc(NC(=O)NCCCl)cc2)c1 ?
Result: 3800

Task: Could you tell me which IC50 is on file for O=C(NCCCl)Nc1ccc(S(=O)(=O)Oc2cc(F)c(F)c(F)c2)cc1 ?
Result: 9800
